Data provenance is PubChem BioAssay (NCI).

- System: SK-OV-3 ovarian
- Experiment Summary: NCI tumour cell line growth inhibition, 48 h
Listed next: entries and their corresponding TGI.

Some solved cases for reference:
| Molecule | Measurement Target | Result |
| --- | --- | --- |
| C=CCN1C[C@H](C)N([C@H](c2ccc(C(=O)NC(CC)CC)cc2)c2cccc(OC)c2)C[C@H]1C | SK-OV-3 ovarian | > 100 µM |
| CCOC(=O)/C=C/CC(C)(C)CCOC(C)=O | SK-OV-3 ovarian | > 10 µM |

Exercise: I'd like to know its TGI. The molecule in question is O=[N+]([O-])c1ccc2c(c1)c(OCc1ccccc1)nn2Cc1ccccc1
Solution: > 100 µM

Exercise: I'd like to know its TGI. The molecule in question is COC(=O)CC[N+]1=CCC(c2ccccc2)(c2ccccc2)O1
Solution: > 100 µM

Exercise: I'd like to know its TGI. The molecule in question is Cc1cnc(NCCCN(C)C)c2c1[nH]c1ccc3cc(O)ccc3c12
Solution: 2.75 µM

Exercise: I'd like to know its TGI. The molecule in question is COC(=O)/C=C1\S/C(=N\NC(=O)c2cc3ccc2/C=C\c2ccc(cc2)/C=C\3)N(c2ccccc2)C1=O
Solution: 75.3 µM

Exercise: I'd like to know its TGI. The molecule in question is CC(=O)NC(Cc1ccc(O)cc1)C(=O)O (stereo not given)
Solution: > 100 µM
